Measured values drawn from ChEMBL document CHEMBL1949525 for this set.

target: P2Y purinoceptor 1 (Meleagris gallopavo) (UniProt P49652); assay: Agonist activity at turkey P2Y purinoceptor 1 expressed in human 1321N1 cells assessed as increase in intracellular calcium concentration at 100 uM by spectrofluorimetry; type: functional, cell-based
Sequence (P49652 whole entry): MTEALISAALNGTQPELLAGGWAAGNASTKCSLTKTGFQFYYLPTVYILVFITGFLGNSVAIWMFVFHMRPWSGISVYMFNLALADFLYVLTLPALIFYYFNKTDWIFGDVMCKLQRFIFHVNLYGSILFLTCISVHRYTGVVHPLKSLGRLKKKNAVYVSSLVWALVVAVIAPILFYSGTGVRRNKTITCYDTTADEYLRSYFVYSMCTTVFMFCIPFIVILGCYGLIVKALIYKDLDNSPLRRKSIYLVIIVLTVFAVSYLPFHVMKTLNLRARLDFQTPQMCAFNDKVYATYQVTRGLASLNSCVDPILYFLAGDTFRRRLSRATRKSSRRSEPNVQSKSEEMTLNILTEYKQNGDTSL
Active and inactive are the calls of the source. No cut-off for these calls is given here.

- compound: "BP(=O)(OC[C@H]1O[C@@H](n2ccc(=O)[nH]c2=O)[C@H](O)[C@@H]1O)OP(=O)(O)OP(=O)(O)OC[C@H]1O[C@@H](n2ccc(=O)[nH]c2=O)[C@H](O)[C@@H]1O.CCCCN(CCCC)CCCC.CCCCN(CCCC)CCCC.CCCCN(CCCC)CCCC (stereo in doubt; 11B)"
  Activity: "Active"
- compound: "BP(=O)(OP(=O)(O)OC[C@H]1O[C@@H](n2ccc(=O)[nH]c2=O)[C@H](O)[C@@H]1O)OP(=O)(O)OP(=O)(O)OC[C@H]1O[C@@H](n2ccc(=O)[nH]c2=O)[C@H](O)[C@@H]1O.CCCCN(CCCC)CCCC.CCCCN(CCCC)CCCC.CCCCN(CCCC)CCCC.CCCCN(CCCC)CCCC (stereo in doubt; 7B)"
  Activity: "Active"
- compound: "BP(=O)(OC[C@H]1O[C@@H](n2ccc(=O)[nH]c2=O)[C@H](O)[C@@H]1O)OP(=O)(O)OP(=O)(O)OP(=O)(O)OC[C@H]1O[C@@H](n2ccc(=O)[nH]c2=O)[C@H](O)[C@@H]1O.CCCCN(CCCC)CCCC.CCCCN(CCCC)CCCC.CCCCN(CCCC)CCCC.CCCCN(CCCC)CCCC (stereo in doubt; 13B)"
  Activity: "Active"
